- System: C4-2B (AR-positive prostate cancer)
- protocol: Cell-Titer GLO cell inhibition
- Assay type: cell-based
- test.parameters: 72 to 144 hours

molecule: OC(c1ccc(-c2ccc(CN3CCN(Cc4ccncc4)CC3)cc2)c(F)c1)(C(F)(F)F)C(F)(F)F [SR2211, reference compound]
IC50, µM: 10.1

###

- protocol: Pharmacokinetics in SD rats
- test.parameters: Sprague-Dawley, rat, in vivo, iv, 2 mg/kg
Here the recorded half-life is given for each entry.
measured.endpoint: half-life (h)

smiles: O=C(Cc1ccccc1[N+](=O)[O-])Nc1ccc(-c2ccc(C(O)(C(F)(F)F)C(F)(F)F)cc2F)cc1
reported.measurement: 7.67
//
smiles: CS(=O)(=O)c1ccc(CC(=O)Nc2ccc(-c3ccc(C(O)(C(F)(F)F)C(F)(F)F)cc3F)cc2)cc1
reported.measurement: 12.7

###

Item-by-item account of IC50
- Tested on: Cos7 (African green monkey kidney cells)
- protocol: Cell-Titer GLO cell inhibition
- Assay type: cell-based
- test.parameters: Chlorocebus sabaeus, COS-7
- Procedure: Experimental materials: fluorescence signal detection instrument: EnSpire Alpha 2390 multifunctional microplate reader (produced by Perkin Elmer Company); 384-well bottom permeable microwell plate; Cell-Titer GLO luminescent reagent; cancer cells to be tested; medium and fetal bovine serum required for cell culture. […]. […] After incubation for 10 minutes, the cells were centrifuged for 1 minute, the signal value of luminescence 384 was measured. […]

smiles: CCS(=O)(=O)c1ccc(CC(=O)Nc2ccc(-c3ccc(C(O)(C(F)(F)F)C(F)(F)F)cc3F)cc2)cc1
study.system: Cos7 (African green monkey kidney cells)
IC50 / µM: 29

smiles: CS(=O)(=O)c1ccc(CC(=O)Nc2ccc(-c3ccc(C(O)(C(F)(F)F)C(F)(F)F)cc3F)cc2)cc1
study.system: Cos7 (African green monkey kidney cells)
IC50 / µM: 40

###

- study.system: RORα (Homo sapiens (Human), UniProt P35398)
- Sequence (P35398 whole entry): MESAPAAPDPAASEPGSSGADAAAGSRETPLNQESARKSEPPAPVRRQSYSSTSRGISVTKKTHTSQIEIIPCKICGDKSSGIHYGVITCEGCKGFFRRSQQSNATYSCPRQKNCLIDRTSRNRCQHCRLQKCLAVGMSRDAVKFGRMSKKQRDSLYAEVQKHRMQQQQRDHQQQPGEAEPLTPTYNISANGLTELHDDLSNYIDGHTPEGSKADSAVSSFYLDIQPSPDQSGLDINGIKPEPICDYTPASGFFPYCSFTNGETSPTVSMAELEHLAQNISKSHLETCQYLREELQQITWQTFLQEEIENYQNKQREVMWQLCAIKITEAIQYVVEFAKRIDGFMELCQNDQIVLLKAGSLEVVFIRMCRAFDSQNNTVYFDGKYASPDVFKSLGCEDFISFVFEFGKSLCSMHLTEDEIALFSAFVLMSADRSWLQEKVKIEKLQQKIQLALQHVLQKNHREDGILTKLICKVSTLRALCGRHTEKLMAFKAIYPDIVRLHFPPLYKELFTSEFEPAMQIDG
- protocol: Specificity luciferase reporter assay in 293T cells, RORα
- test.parameters: reporter gene, NA = no inhibitory effect
measured.endpoint: IC50 (µM)

smiles: O=C(Cc1ccccc1[N+](=O)[O-])Nc1ccc(-c2ccc(C(O)(C(F)(F)F)C(F)(F)F)cc2F)cc1
study.system: RORα (Homo sapiens (Human), UniProt P35398)
measured.endpoint: IC50
reported.measurement: 7.57

###

Recorded Vz, one value per entry.
- protocol: Pharmacokinetics in SD rats
- test.parameters: SD rats, intravenous injection, 2 mg/kg

compound: O=C(Cc1ccccc1[N+](=O)[O-])Nc1ccc(-c2ccc(C(O)(C(F)(F)F)C(F)(F)F)cc2F)cc1 [Example 4]
Vz: 3420 mL/kg
//
compound: CS(=O)(=O)c1ccc(CC(=O)Nc2ccc(-c3ccc(C(O)(C(F)(F)F)C(F)(F)F)cc3F)cc2)cc1 [Example 1]
Vz: 3540 mL/kg

###

- System: 22Rv1 (AR-positive prostate cancer)
- protocol: Cell-Titer GLO cell inhibition
- Type: cell-based
- test.parameters: Homo sapiens

smiles: CCS(=O)(=O)c1ccc(CC(=O)Nc2ccc(-c3ccc(C(O)(C(F)(F)F)C(F)(F)F)cc3F)cc2)cc1
scale.unit: µM
IC50: 14.5

###

- Tested on: H1975 (lung cancer cells)
- protocol: Cell-Titer GLO cell inhibition
- Assay type: cell-based
- test.parameters: H1975; read-out: IC50

compound: OC(c1ccc(-c2ccc(CN3CCN(Cc4ccncc4)CC3)cc2)c(F)c1)(C(F)(F)F)C(F)(F)F [SR2211, reference compound]
study.system: H1975 (lung cancer cells)
IC50 [µM]: 30.7

###

- study.system: RORγ (Homo sapiens (Human))
- protocol: AlphaScreen inhibitory activity on RORγ protein
- Assay type: biochemical
- test.parameters: RORγ 200 nM, bSRC1-4 50 nM
- Sequence (P51449 whole entry, the tested form may be a part): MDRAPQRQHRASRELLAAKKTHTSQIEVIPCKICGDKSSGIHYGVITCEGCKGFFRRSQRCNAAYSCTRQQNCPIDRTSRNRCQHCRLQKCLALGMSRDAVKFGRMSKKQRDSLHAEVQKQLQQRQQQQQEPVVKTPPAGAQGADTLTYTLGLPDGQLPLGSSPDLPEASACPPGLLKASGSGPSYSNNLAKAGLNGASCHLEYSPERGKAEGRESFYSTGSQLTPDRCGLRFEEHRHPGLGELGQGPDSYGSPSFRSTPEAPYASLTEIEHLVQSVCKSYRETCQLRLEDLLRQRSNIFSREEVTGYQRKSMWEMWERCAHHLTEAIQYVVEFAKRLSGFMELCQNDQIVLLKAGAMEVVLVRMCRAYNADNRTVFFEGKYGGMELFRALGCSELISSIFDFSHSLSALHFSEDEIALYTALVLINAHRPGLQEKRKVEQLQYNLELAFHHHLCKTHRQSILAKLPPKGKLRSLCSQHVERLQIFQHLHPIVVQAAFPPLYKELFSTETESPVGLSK
pIC50: −log10 of the molar value.

smiles: O=C(Cc1ccc([N+](=O)[O-])cc1)Nc1ccc(-c2ccc(C(O)(C(F)(F)F)C(F)(F)F)cc2F)cc1
pIC50: 5.31

smiles: Nc1ccccc1CC(=O)Nc1ccc(-c2ccc(C(O)(C(F)(F)F)C(F)(F)F)cc2F)cc1
pIC50: 5.29

smiles: CS(=O)(=O)c1ccc(CC(=O)Nc2ccc(-c3ccc(C(O)(C(F)(F)F)C(F)(F)F)cc3F)cc2)cc1
pIC50: 5.64

smiles: O=C(Cc1ccccc1[N+](=O)[O-])Nc1ccc(-c2ccc(C(O)(C(F)(F)F)C(F)(F)F)cc2F)cc1
pIC50: 5.46

smiles: CCCCC(=O)Nc1ccc(-c2ccc(C(O)(C(F)(F)F)C(F)(F)F)cc2F)cc1
pIC50: 4.99

smiles: Nc1ccc(CC(=O)Nc2ccc(-c3ccc(C(O)(C(F)(F)F)C(F)(F)F)cc3F)cc2)cc1
pIC50: 5.57

###

- System: U2OS (osteosarcoma)
- protocol: Cell-Titer GLO cell inhibition
- Assay type: cell-based
- test.parameters: Homo sapiens
- Procedure: Experimental materials: fluorescence signal detection instrument: EnSpire Alpha 2390 multifunctional microplate reader (produced by Perkin Elmer Company); 384-well bottom permeable microwell plate; Cell-Titer GLO luminescent reagent; cancer cells to be tested; medium and fetal bovine serum required for cell culture. […]. […] After incubation for 10 minutes, the cells were centrifuged for 1 minute, the signal value of luminescence 384 was measured. […]
pIC50: −log10 of the molar value.
List of pIC50 values.

smiles: CCS(=O)(=O)c1ccc(CC(=O)Nc2ccc(-c3ccc(C(O)(C(F)(F)F)C(F)(F)F)cc3F)cc2)cc1
pIC50: 4.80

smiles: CS(=O)(=O)c1ccc(CC(=O)Nc2ccc(-c3ccc(C(O)(C(F)(F)F)C(F)(F)F)cc3F)cc2)cc1
pIC50: 4.46

###

- protocol: Pharmacokinetics in SD rats
- test.parameters: Sprague-Dawley, rat, in vivo, iv, 2 mg/kg

smiles: CS(=O)(=O)c1ccc(CC(=O)Nc2ccc(-c3ccc(C(O)(C(F)(F)F)C(F)(F)F)cc3F)cc2)cc1
Cmax: 980 ng/mL
--
smiles: O=C(Cc1ccccc1[N+](=O)[O-])Nc1ccc(-c2ccc(C(O)(C(F)(F)F)C(F)(F)F)cc2F)cc1
Cmax: 839 ng/mL

###

The reader will find reported ΔTm values listed item by item below.
- study.system: RORγ (Homo sapiens (Human))
- protocol: TSA detection (thermal shift)
- Format: binding
- test.parameters: protein 10 μM
measured.endpoint: ΔTm (°C)

smiles: Nc1ccccc1CC(=O)Nc1ccc(-c2ccc(C(O)(C(F)(F)F)C(F)(F)F)cc2F)cc1
measured.endpoint: ΔTm
reported.measurement: 1.5
//
smiles: O=C(Cc1ccccc1[N+](=O)[O-])Nc1ccc(-c2ccc(C(O)(C(F)(F)F)C(F)(F)F)cc2F)cc1
measured.endpoint: ΔTm
reported.measurement: 4.2
//
smiles: CS(=O)(=O)c1ccc(CC(=O)Nc2ccc(-c3ccc(C(O)(C(F)(F)F)C(F)(F)F)cc3F)cc2)cc1
measured.endpoint: ΔTm
reported.measurement: 7.8
//
smiles: O=C(Cc1ccc([N+](=O)[O-])cc1)Nc1ccc(-c2ccc(C(O)(C(F)(F)F)C(F)(F)F)cc2F)cc1
measured.endpoint: ΔTm
reported.measurement: 6
//
smiles: CCCCC(=O)Nc1ccc(-c2ccc(C(O)(C(F)(F)F)C(F)(F)F)cc2F)cc1
measured.endpoint: ΔTm
reported.measurement: 6.3
//
smiles: Nc1ccc(CC(=O)Nc2ccc(-c3ccc(C(O)(C(F)(F)F)C(F)(F)F)cc3F)cc2)cc1
measured.endpoint: ΔTm
reported.measurement: 1.5

###

- protocol: Pharmacokinetics in SD rats
- test.parameters: Sprague-Dawley, rat, in vivo, po, 10 mg/kg
// values below are reported Cmax
measured.endpoint: Cmax

smiles: CS(=O)(=O)c1ccc(CC(=O)Nc2ccc(-c3ccc(C(O)(C(F)(F)F)C(F)(F)F)cc3F)cc2)cc1
reported.measurement: 1420 ng/mL
--
smiles: O=C(Cc1ccccc1[N+](=O)[O-])Nc1ccc(-c2ccc(C(O)(C(F)(F)F)C(F)(F)F)cc2F)cc1
reported.measurement: 721 ng/mL

###

- Tested on: MCF-7 (ER + breast cancer)
- protocol: Cell-Titer GLO cell inhibition
- Assay type: cell-based
- test.parameters: MCF-7; ~ = estimate; read-out: IC50

compound: OC(c1ccc(-c2ccc(CN3CCN(Cc4ccncc4)CC3)cc2)c(F)c1)(C(F)(F)F)C(F)(F)F [SR2211, reference compound]
IC50: ~9.98 µM

###

compounds and their reported IC50
- study.system: RORγ (Homo sapiens (Human))
- protocol: Luciferase double reporter gene assay (Gal4-RORγLBD) in 293T cells
- Type: cell-based
- test.parameters: 24 hours of incubation
- Sequence (P51449 269-508): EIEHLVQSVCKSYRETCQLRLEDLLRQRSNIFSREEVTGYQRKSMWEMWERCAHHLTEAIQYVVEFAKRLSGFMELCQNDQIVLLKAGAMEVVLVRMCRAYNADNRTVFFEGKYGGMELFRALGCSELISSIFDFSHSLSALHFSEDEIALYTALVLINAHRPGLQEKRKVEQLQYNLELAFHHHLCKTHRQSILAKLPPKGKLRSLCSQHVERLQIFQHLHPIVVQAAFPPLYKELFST

smiles: O=C(Cc1ccc([N+](=O)[O-])cc1)Nc1ccc(-c2ccc(C(O)(C(F)(F)F)C(F)(F)F)cc2F)cc1
IC50, µM: 1.49

smiles: Nc1ccc(CC(=O)Nc2ccc(-c3ccc(C(O)(C(F)(F)F)C(F)(F)F)cc3F)cc2)cc1
IC50, µM: 4.16

smiles: CS(=O)(=O)c1ccc(CC(=O)Nc2ccc(-c3ccc(C(O)(C(F)(F)F)C(F)(F)F)cc3F)cc2)cc1
IC50, µM: 0.12
